compounds and their reported Emax
Target: human F508del CFTR (Homo sapiens, UniProt P13569, DEL508-508)
Construct: expressed in transfected cells; host or cells: Fisher Rat Thyroid (FRT) cells
Sequence (P13569 with tags, fused parts or gaps DEL508-508): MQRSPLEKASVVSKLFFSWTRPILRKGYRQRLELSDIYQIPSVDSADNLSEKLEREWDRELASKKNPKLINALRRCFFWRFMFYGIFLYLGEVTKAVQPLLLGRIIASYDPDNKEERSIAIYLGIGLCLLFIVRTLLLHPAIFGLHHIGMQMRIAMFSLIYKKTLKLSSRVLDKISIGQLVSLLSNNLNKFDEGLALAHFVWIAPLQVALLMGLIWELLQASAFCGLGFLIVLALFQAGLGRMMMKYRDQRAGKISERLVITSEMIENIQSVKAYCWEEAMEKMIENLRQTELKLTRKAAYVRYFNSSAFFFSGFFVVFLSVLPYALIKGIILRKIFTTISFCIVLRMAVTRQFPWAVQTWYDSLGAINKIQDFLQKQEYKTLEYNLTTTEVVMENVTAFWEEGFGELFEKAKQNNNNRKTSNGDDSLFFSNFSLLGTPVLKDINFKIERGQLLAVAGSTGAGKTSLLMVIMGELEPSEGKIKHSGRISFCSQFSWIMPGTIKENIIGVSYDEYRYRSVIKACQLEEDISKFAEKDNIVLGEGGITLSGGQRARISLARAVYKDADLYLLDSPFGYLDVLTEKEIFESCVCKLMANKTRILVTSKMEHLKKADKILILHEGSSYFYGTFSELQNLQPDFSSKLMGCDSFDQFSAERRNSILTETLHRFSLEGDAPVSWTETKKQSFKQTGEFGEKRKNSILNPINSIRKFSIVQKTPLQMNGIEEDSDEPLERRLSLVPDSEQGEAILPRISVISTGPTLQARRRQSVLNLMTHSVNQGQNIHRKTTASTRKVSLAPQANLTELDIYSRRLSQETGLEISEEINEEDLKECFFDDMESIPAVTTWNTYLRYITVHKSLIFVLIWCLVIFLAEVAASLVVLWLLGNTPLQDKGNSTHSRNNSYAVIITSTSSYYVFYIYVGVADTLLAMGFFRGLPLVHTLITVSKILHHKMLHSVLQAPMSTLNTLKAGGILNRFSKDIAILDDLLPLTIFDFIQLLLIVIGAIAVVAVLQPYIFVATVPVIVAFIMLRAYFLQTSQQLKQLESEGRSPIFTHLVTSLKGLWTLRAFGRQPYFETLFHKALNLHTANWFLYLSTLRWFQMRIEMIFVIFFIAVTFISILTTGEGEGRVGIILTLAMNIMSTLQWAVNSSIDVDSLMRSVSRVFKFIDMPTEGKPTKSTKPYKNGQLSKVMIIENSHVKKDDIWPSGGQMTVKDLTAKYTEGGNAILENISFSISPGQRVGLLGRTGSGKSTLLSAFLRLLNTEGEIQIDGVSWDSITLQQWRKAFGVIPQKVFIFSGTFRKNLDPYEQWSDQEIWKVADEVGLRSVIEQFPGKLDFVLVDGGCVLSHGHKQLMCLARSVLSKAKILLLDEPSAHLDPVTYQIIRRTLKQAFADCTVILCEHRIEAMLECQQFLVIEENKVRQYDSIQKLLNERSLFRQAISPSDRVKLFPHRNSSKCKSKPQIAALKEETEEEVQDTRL
Assay: CFTR-YFP High Throughput Assay
Format: cell-based
Conditions: EMax normalized to the positive control; FRT cells expressing human F508del CFTR and YFP; read-out: % Efficacy

Consider the reported Emax for these compounds:
LINE_NOTATION: Cc1ccc(-n2nc(C(=O)N3CCCCC3)c3c4ccccc4n(C)c3c2=O)cc1
Emax: 30 to 80%

LINE_NOTATION: CCN(C(=O)c1nn(-c2ccc(OC)c(Cl)c2)c(=O)c2c1c1ccccc1n2C)c1ccccn1
Emax: 30 to 80%

LINE_NOTATION: CCc1ccc(N(CC)C(=O)Cn2nc(Cc3cccnc3)c3cnccc3c2=O)cc1
Emax: 10 to 30%

LINE_NOTATION: Cn1c2ccccc2c2c(-c3ccccc3)nn(-c3ccccc3F)c(=O)c21
Emax: 10 to 30%

Next:
Consider the compound CCc1ccc(N(CC)C(=O)Cn2nc(Cc3cccnc3)c3cc(C)ccc3c2=O)cc1 and give its measured Emax.
30 to 80%
